Target: human ERα (Homo sapiens, UniProt P03372)
Assay: Creatine kinase expression (ER/CK) in Ad5-wt-hERα infected HAECT-1 cells
pEC50: −log10 of the molar value.
Reported Endpoint: pEC50

[
  {
    "Structure Smiles": "C=CCn1nc2c(C(F)(F)F)cccc2c1-c1ccc(O)cc1",
    "pEC50": 6.88
  },
  {
    "Structure Smiles": "CCCCCn1nc(-c2ccc(O)cc2O)c2cccc(C(F)(F)F)c21",
    "pEC50": 6.99
  },
  {
    "Structure Smiles": "CC(C)n1nc(-c2ccc(O)cc2)c2cccc(-c3ccccc3)c21",
    "pEC50": 6.95
  }
]

---

Molecular target: human ERα (Homo sapiens)
Assay: NF-κB luciferase reporter (ER/NF-KB-luc) in Ad5-wt-hERα infected HAECT-1 cells
Conditions: ER/NF-KB-luc IC50, Ad5-wt-ER infected HAECT-1 cells, IL-1β
Reported Endpoint: IC50 (nM)

Example cases with answers are listed next.
[
  {
    "Compound": "CCc1ccc(-c2cccc3c(-c4ccc(O)cc4C)nn(C(C)C)c23)cc1 [Example 251]",
    "IC50 / nM": 24
  },
  {
    "Compound": "CC(C)n1nc(-c2ccc(O)cc2)c2cccc(-c3ccc(-c4ccccc4)cc3)c21 [Example 233]",
    "IC50 / nM": 87
  },
  {
    "Compound": "CCCCn1nc(-c2ccc(O)cc2)c2ccc(C(F)(F)F)cc21 [Example 198]",
    "IC50 / nM": 303
  },
  {
    "Compound": "Oc1ccc(-c2nn(C3CCCCC3)c3c(F)cccc23)cc1 [Example 33]",
    "IC50 / nM": 37
  },
  {
    "Compound": "Cc1cc(O)ccc1-c1nn(C(C)C)c2c(-c3ccc(CO)cc3)cccc12 [Example 249]",
    "IC50 / nM": 59
  }
]

P: CC(C)c1ccc(-n2nc(-c3ccc(O)cc3O)c3ccc(O)cc32)cc1 [Example 27]
Q: CC(C)n1nc(-c2ccc(O)cc2)c2cccc(Cl)c21 [Example 45]
R: Cc1cccc2c(-c3ccc(O)cc3)nn(C(C)C)c12 [Example 39]
S: C=CCn1nc(-c2ccc(O)cc2C)c2cccc(Cl)c21 [Example 82]
[in] I would appreciate it if you could sort these 4 compounds by IC50, starting from the smallest number. // format: requested-order list of labels
[out] R, Q, S, P
(R: 9 nM, Q: 31 nM, S: 191 nM, P: 1030 nM)

---

Target: human ERα (Homo sapiens, UniProt P03372)
Assay: NF-κB luciferase reporter (ER/NF-KB-luc) in Ad5-wt-hERα infected HAECT-1 cells
Conditions: HAECT1, read-out: ER/NF-KB-luc % E2, efficacy relative to the maximal inhibition observed with E2
Reported Endpoint: Emax (%)

[
  {
    "Structure Smiles": "CCCn1nc2c(-c3ccccc3)cccc2c1-c1ccc(O)cc1",
    "Emax / %": 89
  }
]

A: Oc1ccc(-c2nn(C3CCCC3)c3c(C(F)(F)F)cccc23)c(O)c1
B: CCC(=O)Oc1ccc(-c2nn(C3CCCC3)c3c(F)cccc23)cc1
[in] Returns: the label, A or B , whose recorded Emax is the lower number. Which one? Tell me its label.
[out] A

---

Biological target: human ERα (Homo sapiens, UniProt P03372)
Experiment: NF-κB luciferase reporter (ER/NF-KB-luc) in Ad5-wt-hERα infected HAECT-1 cells
Settings: ER/NF-KB-luc IC50, Ad5-wt-ER infected HAECT-1 cells, IL-1β
pIC50: −log10 of the molar value.
Reported Endpoint: pIC50

[
  {
    "Structure Smiles": "CCCn1nc(-c2ccc(O)cc2)c2cccc(-c3ccccc3)c21",
    "Test Value": 6.67
  }
]

a: CCCCC/C=C/c1cccc2c(-c3ccc(O)cc3C)nn(C(C)C)c12
b: Oc1ccc(-c2n[nH]c3cc(Cl)c(F)cc23)cc1
[in] Returns: the label, a or b , whose recorded pIC50 is the lower number. Which one? Tell me its label.
[out] a

---

Target: UniProt P03372
Sequence (P03372 1-595): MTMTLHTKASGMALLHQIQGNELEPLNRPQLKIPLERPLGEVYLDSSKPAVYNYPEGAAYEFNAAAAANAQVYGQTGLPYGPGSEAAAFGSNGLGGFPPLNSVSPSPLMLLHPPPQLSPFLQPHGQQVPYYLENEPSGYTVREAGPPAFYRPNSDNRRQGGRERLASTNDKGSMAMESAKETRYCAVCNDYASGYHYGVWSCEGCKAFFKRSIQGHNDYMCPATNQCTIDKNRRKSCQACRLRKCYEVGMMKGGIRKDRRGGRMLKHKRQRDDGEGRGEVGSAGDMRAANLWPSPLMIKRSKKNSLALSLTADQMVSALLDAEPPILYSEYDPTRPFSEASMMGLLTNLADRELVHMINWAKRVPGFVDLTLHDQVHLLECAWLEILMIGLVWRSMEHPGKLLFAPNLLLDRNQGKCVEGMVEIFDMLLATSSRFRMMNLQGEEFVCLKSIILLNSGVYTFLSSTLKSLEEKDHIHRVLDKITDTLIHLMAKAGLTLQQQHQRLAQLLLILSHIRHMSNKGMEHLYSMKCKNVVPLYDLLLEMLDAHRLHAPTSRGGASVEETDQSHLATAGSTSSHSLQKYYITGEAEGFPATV
Assay: Creatine kinase expression (ER/CK) in Ad5-wt-hERα infected HAECT-1 cells
Details: efficacy relative to the maximal stimulation observed with E2
Reported Endpoint: ER/CK % E2 (% E2)

Example cases with answers are listed next.
[
  {
    "Structure Smiles": "CC(C)n1nc(-c2ccc(O)cc2)c2cccc(-c3cccs3)c21",
    "Test Value": 21
  },
  {
    "Structure Smiles": "Oc1ccc(-c2n[nH]c3cc(Cl)ccc23)cc1",
    "Test Value": 36
  },
  {
    "Structure Smiles": "Oc1ccc(-c2n[nH]c3cc(Cl)c(F)cc23)cc1",
    "Test Value": 65
  },
  {
    "Structure Smiles": "C=CCn1nc(-c2ccc(O)cc2)c2cccc(C(F)(F)F)c21",
    "Test Value": 38
  },
  {
    "Structure Smiles": "Oc1ccc(-c2nn(C3CCCC3)c3c(-c4ccc(O)c(O)c4)cccc23)cc1",
    "Test Value": 32
  }
]

a: Oc1ccc(-c2nn(-c3ccc(OC(F)(F)F)cc3)c3cc(O)ccc23)c(O)c1
b: CSc1ccc(-c2cccc3c(-c4ccc(O)cc4C)nn(C4CCCC4)c23)cc1
[in] Returns: the label, a or b , whose recorded ER/CK % E2 is the lower number. Which one? Tell me its label.
[out] b
(b: 27 % E2, a: 47 % E2)

---

Target: human ERα (Homo sapiens, UniProt P03372)
Experiment: NF-κB luciferase reporter (ER/NF-KB-luc) in Ad5-wt-hERα infected HAECT-1 cells
Conditions: ER/NF-KB-luc IC50, Ad5-wt-ER infected HAECT-1 cells, IL-1β
Reported Endpoint: IC50 (nM)

[
  {
    "Structure Smiles": "Oc1ccc(-c2nn(-c3ccsc3)c3c(Cl)cccc23)cc1",
    "Reported Endpoint": "IC50",
    "Unit Abbreviation": "nM",
    "Test Value": 505
  },
  {
    "Structure Smiles": "Cc1cc(O)ccc1-c1nn(C2CCCC2)c2c(-c3ccc(O)c(O)c3)cccc12",
    "Reported Endpoint": "IC50",
    "Unit Abbreviation": "nM",
    "Test Value": 18
  },
  {
    "Structure Smiles": "Cn1nc(-c2ccc(O)cc2)c2cc(F)ccc21",
    "Reported Endpoint": "IC50",
    "Unit Abbreviation": "nM",
    "Test Value": 347
  },
  {
    "Structure Smiles": "Cn1nc(-c2ccc(O)cc2O)c2cccc(C(F)(F)F)c21",
    "Reported Endpoint": "IC50",
    "Unit Abbreviation": "nM",
    "Test Value": 311
  },
  {
    "Structure Smiles": "Oc1ccc(-c2nn(Cc3ccccc3)c3ccc(C(F)(F)F)cc23)c(O)c1",
    "Reported Endpoint": "IC50",
    "Unit Abbreviation": "nM",
    "Test Value": 443
  }
]

A: CC(C)n1nc(-c2ccc(O)cc2)c2cccc(-c3ccsc3)c21
B: CCCn1nc(-c2ccc(O)cc2)c2cccc(-c3ccc(F)cc3)c21
[in] Returns: the label, A or B , whose recorded IC50 is the lower number. Which one? Tell me its label.
[out] A

A: COc1ccccc1-n1nc(-c2ccc(O)cc2O)c2ccc(O)cc21
B: Oc1ccc(-c2n[nH]c3ccccc23)cc1
C: Cc1cc(O)ccc1-c1nn(C2CCCC2)c2c(-c3ccccc3)cccc12
[in] I would appreciate it if you could sort these 3 compounds by IC50, starting from the smallest number. // format: requested-order list of labels
[out] C, B, A

a: Oc1ccc(-c2nn(-c3ccccc3F)c3cc(O)ccc23)c(O)c1
b: CCCn1nc2c(F)cccc2c1-c1ccc(O)cc1C
c: CCCCn1nc(-c2ccc(O)cc2)c2cccc(C(F)(F)F)c21
d: C=CCn1nc(-c2ccc(O)cc2)c2cccc(F)c21
e: CCCn1nc2c(-c3ccccc3)cccc2c1-c1ccc(O)cc1
[in] Place the items in sequence of falling IC50. // format: requested-order list of labels
[out] c, b, d, a, e
